Would you kindly list pIC50 for each of these compounds?
molecular target: Carnitine O-palmitoyltransferase 1, liver isoform (Homo sapiens, UniProt P50416); test: SUPPLEMENTARY: Inhibition of Carnitine palmitoyltransferase 1, liver isoform
Sequence (P50416 whole entry, canonical isoform): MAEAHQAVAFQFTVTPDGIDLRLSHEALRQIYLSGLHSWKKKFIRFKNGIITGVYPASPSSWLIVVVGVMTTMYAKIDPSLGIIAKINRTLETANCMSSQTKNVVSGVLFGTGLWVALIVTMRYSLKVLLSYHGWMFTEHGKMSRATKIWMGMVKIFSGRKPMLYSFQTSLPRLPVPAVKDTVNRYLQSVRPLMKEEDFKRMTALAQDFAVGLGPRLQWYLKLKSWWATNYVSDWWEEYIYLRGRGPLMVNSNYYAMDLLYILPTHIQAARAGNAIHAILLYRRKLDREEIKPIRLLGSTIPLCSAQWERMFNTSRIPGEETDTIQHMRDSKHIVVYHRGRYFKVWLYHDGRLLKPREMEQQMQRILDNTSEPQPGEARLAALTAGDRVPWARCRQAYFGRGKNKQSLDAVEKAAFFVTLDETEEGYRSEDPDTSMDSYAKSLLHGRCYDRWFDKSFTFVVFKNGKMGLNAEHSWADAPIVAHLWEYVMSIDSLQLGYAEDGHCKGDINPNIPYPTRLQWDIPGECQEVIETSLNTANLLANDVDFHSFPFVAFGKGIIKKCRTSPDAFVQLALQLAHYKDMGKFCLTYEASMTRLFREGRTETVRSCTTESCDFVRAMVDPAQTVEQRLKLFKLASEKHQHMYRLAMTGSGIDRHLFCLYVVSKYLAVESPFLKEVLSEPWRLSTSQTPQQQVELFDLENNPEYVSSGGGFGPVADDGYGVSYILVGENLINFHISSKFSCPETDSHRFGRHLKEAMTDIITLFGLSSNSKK
// pIC50 is dimensionless: -log10 of concentration (M)

# pIC50 (compound: "O=C([C@H]1CCCCN1C(=O)COc1ccccc1)N1CCN(c2cccc(Cl)c2)CC1" ) is 6.82

COc1ccc(Cl)cc1S(=O)(=O)N1CC(C(=O)O)Oc2ccc(C(=O)Nc3ccccc3)cc21 (centres undefined) yielded pIC50 of 7.46

Measured pIC50 of "O=C(O)c1ccc(NC(=O)c2ccc3ccn(S(=O)(=O)c4cccc(Cl)c4)c3c2)cc1" : 7.78

// "CN1CCN(C(=O)COc2ccccc2)[C@@H](c2nc(-c3ccc4c(c3)CC(=O)N4)no2)C1" : pIC50 value = 6.86

The compound listed as COc1ccc(Cl)cc1S(=O)(=O)N1CC[S+]([O-])c2ccc(C(=O)Nc3ccc(C(=O)O)cc3)cc21 (centres undefined) has a reported pIC50 of 7.03

Quick note, pIC50 for "NC(=O)c1ccc(-c2noc([C@H]3CCCCN3C(=O)COc3ccccc3)n2)cc1" landed at 7.47

// field: pIC50; key: "Cc1cc(C)cc(S(=O)(=O)n2ccc3ccc(C(=O)Nc4ccc(C(=O)O)cc4)cc32)c1" ; value = 7.45

Recorded result, "COc1ccc(Cl)cc1S(=O)(=O)N1CCCc2ccc(C(=O)Nc3ccc(C(=O)O)cc3)cc21" , pIC50: 7.57

The compound "O=C(O)Cc1csc(NC(=O)c2ccc3c(c2)N(S(=O)(=O)c2cccc(Cl)c2)CC3)n1" showed pIC50 equal to 7.39

* * *

target: Carnitine O-palmitoyltransferase 1, muscle isoform (Homo sapiens, UniProt Q92523); assay: SUPPLEMENTARY: Inhibition of Carnitine palmitoyltransferase 1, muscle isoform; set-up: species or system Muscle tissue
Sequence (Q92523 whole entry, canonical isoform): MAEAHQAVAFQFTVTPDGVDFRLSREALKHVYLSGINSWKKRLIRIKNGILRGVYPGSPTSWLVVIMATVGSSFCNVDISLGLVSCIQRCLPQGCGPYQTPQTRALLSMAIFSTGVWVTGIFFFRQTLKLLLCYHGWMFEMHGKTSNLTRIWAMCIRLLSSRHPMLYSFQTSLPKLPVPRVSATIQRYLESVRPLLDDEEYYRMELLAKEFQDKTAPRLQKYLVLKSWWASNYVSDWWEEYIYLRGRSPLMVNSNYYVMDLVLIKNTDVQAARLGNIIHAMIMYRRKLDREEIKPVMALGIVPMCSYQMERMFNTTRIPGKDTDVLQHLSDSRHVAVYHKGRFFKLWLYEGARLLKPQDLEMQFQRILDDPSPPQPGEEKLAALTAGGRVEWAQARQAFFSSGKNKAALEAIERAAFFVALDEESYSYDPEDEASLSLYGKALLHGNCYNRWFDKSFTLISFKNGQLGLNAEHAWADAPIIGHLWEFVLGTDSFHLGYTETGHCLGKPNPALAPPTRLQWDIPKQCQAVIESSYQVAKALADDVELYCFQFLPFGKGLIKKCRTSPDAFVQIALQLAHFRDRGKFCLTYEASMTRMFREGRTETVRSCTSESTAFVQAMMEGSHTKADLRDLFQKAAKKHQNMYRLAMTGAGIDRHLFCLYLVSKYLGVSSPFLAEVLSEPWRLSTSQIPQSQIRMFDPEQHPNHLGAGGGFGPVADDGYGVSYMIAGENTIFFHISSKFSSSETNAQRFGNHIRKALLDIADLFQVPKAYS
Provide the recorded IC50 for the entries that follow.

The molecule listed as "O=C([C@H]1CCCCN1C(=O)COc1ccccc1)N1CCN(c2ncccn2)CC1" shows IC50 equal to > 100 µM

The molecule listed as "O=C(COc1ccccc1)N1CCCC[C@@H]1c1nc(-c2ccc(Cl)cc2)cs1" has a reported IC50 of > 100 µM

Just so you know, measured IC50 for CCOC(=O)C1CN(S(=O)(=O)c2cc(Cl)ccc2OC)c2cc(C(=O)Nc3cccc(F)c3)ccc2O1 (stereo unspecified) came out at > 100 µM

# IC50 (molecule: O=C(COc1ccccc1)N1CCCC[C@@H]1c1csc(C2COc3ccccc3O2)n1 (stereo partly specified) ) is > 100 µM

Short answer for "COc1ccc(Cl)cc1S(=O)(=O)c1n[nH]c2ccc(C(=O)Nc3ccccc3)cc12" : IC50 was > 100 µM

Value of measured IC50 for the entry "CC(=O)Nc1cccc(-n2nnc([C@H]3CCCCN3C(=O)COc3ccccc3)n2)c1" : > 100 µM

Measured IC50 of COc1ccc(Cl)cc1S(=O)(=O)N1CC(C)c2ccc(C(=O)Nc3ccc(C(=O)O)cc3)cc21 (stereo unspecified) : 2.24 µM

What the record says about "COc1ccc(Cl)cc1CN1C(=O)C(C)(C)c2ccc(C(=O)Nc3ccc(C(=O)O)cc3)cc21" : IC50 is 2.17 µM

Lab note: "COc1ccc(Cl)cc1S(=O)(=O)c1nn(C)c2ccc(C(=O)Nc3ccc(CC(=O)O)cc3)cc12" gave IC50 of 1.73 µM

Lab book: IC50 of "COc1ccc(Cl)cc1S(=O)(=O)N1COc2c(F)cc(C(=O)Nc3ccc(C(=O)O)c(Cl)c3)cc21" noted as 2.73 µM

According to the records, this molecule "Cc1cc(C)cc(S(=O)(=O)c2n[nH]c3ccc(C(=O)Nc4ccccc4)cc23)c1" displays IC50 of > 100 µM

What the record says about "CCOc1ccc(C(=O)Nc2ccc(CC(=O)O)cc2)cc1N(CCS(=O)O)S(=O)(=O)c1cc(Cl)ccc1OC" : IC50 is 0.634 µM

Record summary for "O=C([C@H]1CCCCN1C(=O)COc1ccccc1)N1Cc2cc(F)c(N3CCOCC3)cc2C1" : reported IC50 = > 100 µM

For this molecule ( "O=C(COc1ccccc1)N1CCCC[C@@H]1c1nc(-c2cc[nH]c(=O)c2)no1" ), measured IC50 is > 100 µM

For "O=C([C@H]1CCCCN1C(=O)COc1ccccc1)N1Cc2cc(F)c(OC3CCOCC3)cc2C1" the molecule record lists IC50 as > 100 µM

Note to self: IC50 recorded for "NC(=O)c1ccc(-c2noc([C@H]3CCCCN3C(=O)COc3ccccc3)n2)cc1" was > 100 µM

// sample O=C(c1nc([C@H]2CCCCN2C(=O)COc2ccccc2)no1)N1CCC(c2ccncc2)C1 (stereo partly specified) , its IC50 was > 100 µM

Please fill in: IC50 reported for "O=C([C@H]1CCCCN1C(=O)COc1ccccc1)N1Cc2ccc(C3CCOCC3)cc2C1" = > 100 µM

molecule "NC(=O)c1ccc(-c2csc([C@H]3CCCCN3C(=O)COc3ccccc3)n2)cc1" , IC50 observed: > 100 µM

Documented IC50 of "Nc1ccc(-c2n[nH]c([C@H]3CCCCN3C(=O)COc3ccccc3)n2)cn1" : > 100 µM

Reported IC50 for "CC(=O)Nc1cc(F)cc(-c2noc([C@H]3CCCCN3C(=O)COc3ccccc3)n2)c1" was > 100 µM

All figures here come from ChEMBL document CHEMBL3431459.
